B1: CCND1 (parent)
chain: IRRAYPDANLLNDRVLRAMLKAEE

# Variants of: B1
# Assay Name: protein stability index of a GFP-peptide fusion (GPS, HEK-293T) (PSI 1-6); higher = more stable;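 also: lentivirally expressed fusions sorted by FACS into six bins by GFP to DsRed ratio, PSI derived from sequencing read proportions per bin multiplied by bin number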
# Experimental Conditions: c terminus: a fixed tail appended
Measured Metric: protein stability index

> print(dat)
   sequence.change  measured
1              R3W      1.99
2             M19A         3
3             L10R      3.08
4             N12G      3.05
5             K21N      3.04
